measurement_protocol: Comparison of PK parameters between visits (with vs without CBD) by mixed effects model ANOVA
measurement_conditions: human, in vivo
reported_metric: AUC(0-t) (ng·h/mL)
Numbers only, in ng·h/mL.

>  <compound>
COc1cccc(C2(O)CCCCC2CN(C)C)c1 (stereo not drawn)

>  <reported_metric>
AUC(0-t)

>  <value_units>
ng·h/mL

>  <value_measured>
1130

$$$$
>  <compound>
CN(C)CCC=C1c2ccccc2CCc2ccccc21

>  <reported_metric>
AUC(0-t)

>  <value_units>
ng·h/mL

>  <value_measured>
139

$$$$

Kindly review the next compound as well.
Can you look up the measured AUC(0-t) of CNCCC=C1c2ccccc2CCc2ccccc21 for me?
75.3

====

measurement_protocol: Plasma pharmacokinetics (non-compartmental analysis) in open-label, fixed-sequence, 2-way crossover study in healthy participants
measurement_conditions: human, in vivo, po, AUClast, Mean, Visit 2 (Day 8): 30 mg CBD oral 1 h prior to 25 mg amitriptyline + 50 mg tramadol, fasted; plasma; N=12
reported_metric: AUC(0-t) (ng·h/mL)
Answers are plain numbers, in ng·h/mL.

>  <molecule>
C=C(C)[C@@H]1CCC(C)=C[C@H]1c1c(O)cc(CCCCC)cc1O [Cannabidiol]

>  <value_units>
ng·h/mL

>  <value_measured>
6.9

$$$$

Kindly review the next molecule as well.
Can you look up the measured AUC(0-t) of COc1cccc(C2(O)CCCCC2CN(C)C)c1 (centres unmarked) [Tramadol] for me?
1210

====

measurement_protocol: Plasma pharmacokinetics (non-compartmental analysis) in open-label, fixed-sequence, 2-way crossover study in healthy participants
measurement_conditions: human, in vivo, po, AUClast, Mean, Visit 1 (Day 1): 25 mg amitriptyline + 50 mg tramadol oral, fasted, no CBD; plasma; N=13
reported_metric: AUC(0-t) (ng·h/mL)
Numbers only, in ng·h/mL.

Can you look up the measured AUC(0-t) of COc1cccc(C2(O)CCCCC2CN(C)C)c1 (stereo not shown) for me?
1170

====

measurement_protocol: Plasma pharmacokinetics (non-compartmental analysis) in open-label, fixed-sequence, 2-way crossover study in healthy participants
measurement_conditions: human, in vivo, po, AUClast, Median, Visit 2 (Day 8): 30 mg CBD oral 1 h prior to 25 mg amitriptyline + 50 mg tramadol, fasted; plasma; N=12
reported_metric: AUC(0-t) (ng·h/mL)
Give bare numbers, in ng·h/mL.

>  <molecule>
COc1cccc(C2(O)CCCCC2CN(C)C)c1 (centres unmarked)

>  <value_units>
ng·h/mL

>  <value_measured>
1160

$$$$

Kindly review the next molecule as well.
Can you look up the measured AUC(0-t) of C=C(C)[C@@H]1CCC(C)=C[C@H]1c1c(O)cc(CCCCC)cc1O for me?
6.2

====

measurement_protocol: clinical
measurement_conditions: human, in vivo, 30 mg
reported_metric: AUC(0-t)
Please provide the amount together with its unit, number first.

Reference set, count: 2
>  <compound>
CNCCC=C1c2ccccc2CCc2ccccc21

>  <value_measured>
79.5 ng·h/mL

$$$$
>  <compound>
CN(C)CCC=C1c2ccccc2CCc2ccccc21

>  <value_measured>
156 ng·h/mL

$$$$

Can you look up the measured AUC(0-t) of COc1cccc(C2(O)CCCCC2CN(C)C)c1 (stereo not drawn) for me?
1180 ng·h/mL
